System: HCT-116 colon
Assay: NCI-60 one-dose screen, 48 h (100 = growth as untreated, 0 = no growth, -100 = all killed)
Settings: 10 µM unless noted
This is part of a sample that, as a whole, favours compounds with a hit. Of some 83,000 tested, about 20% had one in any assay.
attribute-measured: growth (%)
Record the value in %, omitting the unit from your answer.

Give the reported growth for this compound. "COc1ccc(-c2ccc(=O)oc2-c2cc(OC)c(OC)c(OC)c2)cc1O"
-67.4

Quickly give me recorded growth for "c1cc2c(ccc3[nH]c(-c4ccc5[nH]ncc5c4)c4c(c32)CCCC4)n1"
38

* * *

Test system: PC-3 prostate
Assay: NCI-60 one-dose screen, 48 h
Conditions: 10 µM unless noted
Compounds without any hit were thinned out: in the full panel of roughly 83,000, 20% have a hit. Activity calls are given as the source filed them. Rule for the calls: active = growth percent below 10; inactive = the rest.
Allowed answers: active, inactive

A selection of reference data follows.
entry-smiles | answer-label
OB1OCc2cc(/C=C/c3cccc(C(F)(F)F)c3)ccc21 | inactive
CC/C=C\C[C@H](O)C/C=C1/C(=O)C=C[C@@H]1C/C=C\CCCC(=O)N(C)C | active
O=c1[nH]c(-c2ccccc2)nc2sc3cc(O)ccc3c12 | inactive

Name the outcome recorded for "CSc1nnc(-c2cc3c([nH]c4ccccc43)c(-c3cccc(O)c3)n2)n1-c1ccccc1" in the assay.
inactive

What outcome does the record of this test show for "O=C(CSc1nc2ccc([N+](=O)[O-])cc2[nH]1)Nc1ccc([N+](=O)[O-])cc1" ?
inactive

Recorded call for "COc1ccc(-c2nc3cc(C(=O)NCc4ccccc4)ccc3n2C2CCCCC2)cc1" ?
inactive

# outcome recorded in this test, key = "Cc1cccc(/C=C/c2c(C(=O)/C=C/c3ccccc3)c(C)nc3ccccc23)c1"
active

* * *

Tested on: SK-MEL-2 melanoma
Assay: NCI-60 one-dose screen, 48 h (100 = growth as untreated, 0 = no growth, -100 = all killed)
Details: 10 µM unless noted
Protocol: Growth inhibition of the SK-MEL-2 human tumor cell line is measured as a screen for anti-cancer activity. Cells are grown in 96 well plates and exposed to the test compound for 48 hours. Compounds are tested at a single concentration, which is 10^-5 M for most compounds. The reported endpoint is percent growth (GI% or GIPRCNT), where numbers from 0 - 100% represent growth inhibition, and numbers from -100% - 0 represent cell death. For example, a value of 40 represents 60% growth inhibition. […]
This is part of a sample that, as a whole, favours compounds with a hit. Of some 83,000 tested, about 20% had one in any assay.
growth below 50% gives not satisfied; growth at or above it gives satisfied.

Consider the worked cases shown below.
compound | answer-label
O=c1[nH]c(-c2ccccc2)nc2sc3cc(O)ccc3c12 | satisfied
C[C@@H](CO)[C@@H]1CCC=C2CC[C@]3(C)[C@H](CC[C@@H]4[C@@]5(C)CCCNC(C)(C)[C@@H]5CC[C@]43C)[C@H]21 | satisfied
CC(=O)c1c(C)nc2ccccc2c1/C=C/c1ccc(F)cc1 | satisfied
COc1ccc2c(c1)N(CCO)C1=C(C(=O)OC1)C2c1cccc(F)c1 (stereo not given) | not satisfied
CC(C)(Sc1cc(C(C)(C)C)c(O)c(C(C)(C)C)c1)Sc1cc(C(C)(C)C)c(OC(=O)CCCC(=O)O)c(C(C)(C)C)c1 | satisfied
O=C1c2c(c3c4ccccc4[nH]c3c3ccc4ccccc4c23)C(=O)N1CCN1CCNCC1 | satisfied

Hi, just wondering whether "COc1cc(-c2nc3sccn3c2-c2ccnc(NCCNS(=O)(=O)c3ccccc3)n2)ccc1F" shows growth of 50% or higher.
satisfied

Reported growth reaches at least 50% for "C=CC(=O)N1CCN(c2cccc(Oc3nccc(Nc4nnc(-c5ccc(Br)cc5)s4)n3)c2)CC1" ?
satisfied

Is growth at least 50%? Consider CC(=O)O[C@H]1CC2CCC3C(CC[C@@]4(C)C3C[C@H]([N+]3(C)CCCCC3)[C@@H]4OC(C)=O)[C@@]2(C)C[C@@H]1N1CCCCC1 (stereo not given in full)
satisfied

Tell me whether growth is at least 50% here: "COc1ccc(OC)c(Nc2nnc(-c3ccc(O)c(OC)c3)o2)c1"
satisfied

API: above_or_equal(metric=growth, cutoff=50%) for item "COc1ccccc1NC(=O)N=Nc1c(O)[nH]c2ccccc12"
satisfied

* * *

Tested on: NCI-H23 lung
Assay: NCI-60 one-dose screen, 48 h
Conditions: 10 µM unless noted
About 83,000 compounds went through this panel and 20% of them were active in at least one assay; those are over-represented in the sample as a whole. Calls of active or inactive are those of the source. Rule for the calls: active = growth percent below 10; inactive = the rest.
Hello, when you answer, please use one of the following outcomes: active, inactive

Recorded results for 6 compounds are shown here.
compound | measured-on | answer-label
CCOC(=O)C1=C(c2ccccc2)N=C2SC=C(c3ccc(Cl)cc3)N2C1c1ccc(Br)cc1 (stereo not given) | NCI-H23 lung | inactive
Cn1ccnc1C(=O)/C=C/c1ccc(C(=O)Nc2ccc(Cl)cc2)cc1 | NCI-H23 lung | active
N#Cc1c(-c2ccc(Cl)cc2)c(C#N)c2c(C#N)c(N)nn2c1N | NCI-H23 lung | inactive
Cn1ccc(=O)c(C(=O)Nc2nsc3ccc([N+](=O)[O-])cc23)c1 | NCI-H23 lung | inactive
COc1c(B(O)O)cccc1-c1nc2c(F)cc3[nH]ncc3c2c2c1CCCC2 | NCI-H23 lung | active
CCOC(=O)c1c(C(=O)c2cn(C)c3ccc(Br)cc23)c(-c2cn(C)c3ccc(Br)cc23)n(NC(=O)OC(C)(C)C)c1C | NCI-H23 lung | inactive

Now consider a different compound.
Each compound tested received a call. Report the one for "CN(/C(N)=N/N=C/c1c2ccccc2cc2ccccc12)C1CCCCC1" .
inactive

* * *

Test system: HOP-92 NSCLC
Experiment: NCI-60 one-dose screen, 48 h (100 = growth as untreated, 0 = no growth, -100 = all killed)
Conditions: 10 µM unless noted
Compounds without any hit were thinned out: in the full panel of roughly 83,000, 20% have a hit.
# growth annotations
Please reply with the bare figure in % and do not write the unit itself.

Before answering, review these 4 worked examples.
compound | measure-unit | val
N#Cc1c(-c2ccccc2)[nH]c2ncc(-c3ccccc3)n2c1=O | % | 80.7
O=C(O)CCCN1C(=O)/C(=C/c2cn(-c3ccccc3)nc2-c2ccc([N+](=O)[O-])cc2)SC1=S | % | 111
N#C/C(=C\c1c(-c2ccccc2)[nH]c2ccccc12)C(N)=O | % | 65.1
NC(Cc1ccc(O)c([N+](=O)[O-])c1)C(=O)O (stereo not drawn) | % | 67.4

In one line, give reported growth of the entry "O=S(=O)(NCCNc1nccc(-c2c(-c3ccc(F)c(O)c3)nc3occn23)n1)c1ccc(Cl)cc1" .
70.4

State its growth: "CSc1oc(C)nc1[P+](c1ccccc1)(c1ccccc1)c1ccccc1"
59.9

Answer with the recorded growth of "Cn1cc(-c2csc(-c3cn(C(=O)OC(C)(C)C)c4ccc(Br)cc34)n2)c2ccnc(Cl)c21" only.
58.8

Tell me its growth given C#CCNC(=O)[C@H](CC)[C@H]1CC[C@H](C)[C@H]([C@@H](C)[C@H](O)[C@H](C)C(=O)[C@H](CC)C2O[C@]3(C=CC(=O)[C@]4(CC[C@@](C)([C@H]5CC[C@](O)(CC)[C@H](C)O5)O4)O3)[C@H](C)C[C@@H]2C)O1 (stereo partly drawn) as the entry.
13.2

* * *

System: SK-MEL-2 melanoma
Assay: NCI-60 one-dose screen, 48 h (100 = growth as untreated, 0 = no growth, -100 = all killed)
Details: 10 µM unless noted
About 83,000 compounds went through this panel and 20% of them were active in at least one assay; those are over-represented in the sample as a whole.
Below, each of the compounds is paired with its reported growth value.
Provide the reading as a plain figure in %.

compound | measured-on | measure-unit | growth
N#Cc1nc(-c2ccc(Cl)cc2)oc1S(=O)(=O)N1CCN(c2ccc(F)cc2)CC1 | SK-MEL-2 melanoma | % | 87.9
O=C(CSc1nc2sc3c(c2c(=O)n1-c1ccccc1)CCCCC3)N/N=C/c1cccc([N+](=O)[O-])c1 | SK-MEL-2 melanoma | % | 90.2
Cc1cn(-c2cc(NC(=O)c3cccc(C#Cc4cccc5[nH]nc(N)c45)c3)cc(C(F)(F)F)c2)cn1 | SK-MEL-2 melanoma | % | 22.5
O=C1NC2(Nc3ccccc31)C(=O)Nc1c(Cl)cc(Cl)cc12 (centres undefined) | SK-MEL-2 melanoma | % | 119
CN(C)c1ccc(-c2c(C#N)c(N)nn2C(=O)c2ccc(NC(=O)c3ccccn3)cc2)cc1 | SK-MEL-2 melanoma | % | 105
Oc1ccc(Cl)cc1/C=N\NC(=S)N/N=C/c1cc(Cl)ccc1O | SK-MEL-2 melanoma | % | 26.2

For the compound "COCCNC(=O)Nc1ccc2nc(-c3cccs3)c(-c3cccs3)nc2c1" , give its reported growth.
101

Supply reported growth belonging to this compound: "Cc1sc2nc(NCCc3c[nH]c4ccc(Cl)cc34)[nH]c(=O)c2c1C"
78.5

Look up and state reported growth for "CCN(C)S(=O)(=O)Nc1cccc(Nc2ncnc3cc(NC(=O)CCl)ccc23)c1Cl"
17.7
